- TEST TARGET: T1, HLA-A*02:01 on T2 cells without peptide loading (human)
- T1 construct: whole, on cells; TAP-deficient T2 cells with no exogenous peptide
- PROTOCOL DETAILS: flow cytometry, scFv phage on T2 cells, anti-M13 + labelled anti-mouse IgG
RESULT TYPE: Median MFI (PE-A) (MFI)
Respond with the bare value in MFI.

Example entries and their recorded answers appear below.
BINDER	TEST VALUE
Phage clone 34 (scFv) scFv: QSVLTQPPSVSGAPGQRVTISCTGSSLNLGAGYDVHWYQQFPGTAPKLLIFANTNRPSGVPDRFSASKSGTSASLAITGLQAEDEADYFCQSYDNSLSGYVFGTGTKVTVLGSRGGGGSGGGGSGGGGSLEMAQVQLVQSGAEVKKPGSSVKVSCKASGGTFSSYAISWVRQAPGQGLEWMGGIIPIFGTANYAQKFQGRVTITADESTSTAYMELSSLRSEDTAVYYCARSYWTFEYSIDSWGQGTLVTVSS	109
Phage clone 32 (scFv) scFv: QSVLTQPPSVSGAPGQRVTISCTGSSSNLGAGYDVHWYQQLPGTAPKVLVYFNNNRPSGVPDRFSGSKSGTSASLAITGLQAEDEADYYCQSYDSSLSASVFGTGTKVTVLGSRGGGGSGGGGSGGGGSLEMAQVQLVESGAEVKKPGASVKVSCKASGYTFTSYTITWVRQAPGQGLEWMGWISPYNGNTNYAQNLQGRVTMTTDTSTTTAYMELRSLTSDDTAVYYCARSWEHGFPYDEWGQGTLVTVSS	132
Phage clone 35 (scFv) scFv: SYVLTQPPSASGTPGQRVTISCSGSTFNIGSNTVNWYQQLPATAPKLLIYSNNQRPSGVPDRFSGSKSGTSASLAISGLQSEDAAAYYCAAWDDSLSGHVVFGGGTKLTVLGSRGGGGSGGGGSGGGGSLEMAEVQLVQSGAEVKKPGASVKVSCKASGYTFTSYGISWVRQAPGQGLEWMGWISAYNGNTNYAQKLQGRVTMTTDTSTSTAYMELRSLRSDDTAVYYCARYYESGYPFDWWGQGTLVTVSS	125

Next up:
Phage clone 38 (scFv, fusion to the phage coat protein not described) scFv: SYELTQPPSVSVAPGKTARITCGGNNIGSKSVNWYQQKPGQAPVLVIYYDNDRPSGIPERFSGSNSGNTATLTISRVEAGDEADYYCQVWNSSSDHYVFGTGTKVTVLGSRGGGGSGGGGSGGGGSLEMAQMQLVQSGAEVKTTGASVRVSCKASGYTFTDYYLHWVRQAPGQGLEWMGWINPHSGGTNYAQKFQGRVTMTRDTSISTAYMELSSLRSDDTAVYYCAREDYSGSGSSDAWGQGTLVTVSS has a reported Median MFI (PE-A) of 66
